Source of measurements: ChEMBL document CHEMBL4689842

Consider the following compounds and their measured Population Normal (%) readings.
Test system: HEK-293T
test.protocol: Multiplex assay against HEK293T
Type: toxicity, cell-based
test.conditions: human, 24 h, 1 µM, compound concentration 1 uM, replicate 2
measured.endpoint: Population Normal (%)

> print(dat)
                           smiles.structure  recorded.measurement
1  Cc1c(-c2ccc(O)cc2)n(Cc2ccc(OCCN3CCCCCC3)cc2)c2ccc(O)cc12                    91
2  Nc1c(C(=O)NCc2ccc(C(=O)NCCCC3CCCCC3)cc2)cnn1-c1ccccc1                    97
3  C[C@@]1(C(=O)Nc2ccc(F)nc2)CCCN1c1nc(Nc2cc(C3CC3)n[nH]2)c2cccn2n1                    90
4  CC[C@H](C)C(=O)O[C@H]1C[C@@H](C)C=C2C=C[C@H](C)[C@H](CC[C@@H]3C[C@@H](O)CC(=O)O3)[C@H]21                    96

----------
Test system: U2OS
test.protocol: Incucyte cell viability with U2OS; note: filed as whole numbers so only -1 and 0 and 1 occur
Assay type: toxicity, cell-based
test.conditions: human, 0 h, 10 µM, compound concentration 10 uM, replicate number 1, timepoint 0 hours
Reported Growth Rate values for a set of compounds
measured.endpoint: Growth Rate

> print(dat)
                                   compound  recorded.measurement
1  CC(C)C(=O)Nc1n[nH]c2cc(-c3cccc(NS(=O)(=O)C4CC4)c3)ccc12                     0
2  CC1(C)CCC(C)(C)c2cc(C3(c4ccc(C(=O)O)cc4)OCCO3)ccc21                     0
3  CCN(CC)CCCCNc1ncc2cc(-c3cc(OC)cc(OC)c3)c(NC(=O)NC(C)(C)C)nc2n1 [PD-173074]                     1
4  CN([C@@H]1CCc2c(CC(=O)O)c3ccccc3n2C1)S(=O)(=O)c1ccc(F)cc1 [MK-7246]                     0
5  CC1=C(C#N)C(c2ccc3[nH]nc(C)c3c2)C(C#N)=C(C)N1 [BAY-474]                     0
6  CNc1nc(NCc2ccc(NS(C)(=O)=O)cc2Cl)cc(-c2ccccn2)n1                     0
7  Cn1cc(-c2[nH]c3cc(NC(=O)[C@H](N)C4CCCCC4)cc4c3c2C=NNC4=O)cn1                     0
8  CCC(=O)Nc1cccc(Oc2nc(Nc3ccc(N4CCN(C)CC4)cc3OC)ncc2Cl)c1                     0
9  Cc1cc(Nc2nccc(C)n2)cc(-c2cnc([C@@]3(O)CC[C@H](C(=O)O)C(C)(C)C3)s2)c1 [MRL-SYKi]                     0

----------
Tested on: HEK-293T
test.protocol: Multiplex assay against HEK293T
Assay type: toxicity, cell-based
test.conditions: human, 24 h, 10 µM, compound concentration 10 uM, replicate 1
Recorded Population Membrane Permeable-Phenotype (%), one value per entry.
measured.endpoint: Population Membrane Permeable-Phenotype (%)

> print(dat)
                                    compound  test.system  value.units  recorded.measurement
 1  c1cn2cc(-c3ccc4cn[nH]c4c3)nc(Nc3ccc(N4CCOCC4)cc3)c2n1 [ENTOSPLETINIB]     HEK-293T            %                    11
 2  Cc1csc2c(N[C@@H](C)CN3CCN(S(=O)(=O)c4ccc(Cl)c(Cl)c4)CC3)ncnc12     HEK-293T            %                    27
 3  CC(C)(O)CNc1ncc(-c2ccnc(Nc3ccnc(Cl)c3)n2)c(CC2CC2)n1     HEK-293T            %                    11
 4  Cc1nc(-c2cn3c(n2)-c2ccc(-c4cnn(C(C)(C)C(N)=O)c4)cc2OCC3)n(C(C)C)n1 [TASELISIB]     HEK-293T            %                    12
 5  Cl.N#Cc1ccc2[nH]cc(CCCCN3CCN(c4ccc5oc(C(N)=O)cc5c4)CC3)c2c1 [VILAZODONE HYDROCHLORIDE]     HEK-293T            %                     0
 6  Cc1nc(-c2ccc(-c3ccc(C(=O)N4CCc5cc6c(cc54)C4(CCN(C)CC4)CO6)cc3)c(C)c2)no1 [SB-224289]     HEK-293T            %                     2
 7  CC(C)NCC(O)COc1ccc(CCOCC2CC2)cc1.Cl (centres undefined) [BETAXOLOL HYDROCHLORIDE]     HEK-293T            %                     4
 8  COc1cccc([C@@H](C)NCCCc2ccccc2Cl)c1.Cl [TECALCET HYDROCHLORIDE]     HEK-293T            %                     0
 9  OC1(c2ccc(Cl)cc2)CCN(Cc2c[nH]c3ccccc23)CC1     HEK-293T            %                     0
10  Cn1c(-c2csc(C3CCN(CC4=NC5N=CC=CC5N4)CC3)n2)nc2ccccc21 (centres undefined) [BAY-070]     HEK-293T            %                     6
11  COc1ncc(-c2ccc3nccc(-c4ccnnc4)c3c2)cc1NS(=O)(=O)c1ccc(F)cc1F [OMIPALISIB]     HEK-293T            %                     2
12  Nc1c(C(=O)NCc2ccc(C(=O)NCCCC3CCCCC3)cc2)cnn1-c1ccccc1 [SR-318]     HEK-293T            %                     0
13  CN1C(=O)c2sccc2N(C)c2nc(Nc3ccc(S(N)(=O)=O)cc3)ncc21     HEK-293T            %                     5
14  CN(C)C(=O)N[C@H]1CC[C@H](CCN2CCN(c3cccc(Cl)c3Cl)CC2)CC1.Cl [CARIPRAZINE HYDROCHLORIDE]     HEK-293T            %                     0
15  CN1CCC[C@@H]1CCO[C@](C)(c1ccccc1)c1ccc(Cl)cc1.O=C(O)/C=C/C(=O)O [CLEMASTINE FUMARATE]     HEK-293T            %                     0
16  C=CC(=O)Nc1cccc(C(=O)Nc2ccc(Nc3cc(-c4[nH]c(SC)nc4C)ccn3)cc2)c1     HEK-293T            %                     5
17  CNc1nc(NCc2ccc(NS(C)(=O)=O)cc2Cl)cc(-c2ccccn2)n1     HEK-293T            %                     0
18  CN1CCN(CCOc2cc(OC3CCOCC3)c3c(Nc4c(Cl)ccc5c4OCO5)ncnc3c2)CC1 [SARACATINIB]     HEK-293T            %                     0
19  Cn1cc(-c2[nH]c3cc(NC(=O)[C@H](N)C4CCCCC4)cc4c3c2C=NNC4=O)cn1     HEK-293T            %                    14
20  Cc1cc(C)cc(-c2cnc3cc(Cl)c(-c4cccc(O)c4)cc3c2OCCCN)c1     HEK-293T            %                     0
21  Cc1c(-c2ccc(O)cc2)n(Cc2ccc(OCCN3CCCCCC3)cc2)c2ccc(O)cc12 [BAZEDOXIFENE]     HEK-293T            %                     0
22  CN(C)C(=O)/C(C#N)=C/c1ccc(-c2nc3cnc4[nH]ccc4c3n2C2CCCCC2)o1     HEK-293T            %                     9
23  COc1cc2nccc(Oc3ccc(NC(=O)Nc4cc(C)on4)c(Cl)c3)c2cc1OC.O     HEK-293T            %                     3
24  CC[C@H](C)C(=O)O[C@H]1C[C@@H](C)C=C2C=C[C@H](C)[C@H](CC[C@@H]3C[C@@H](O)CC(=O)O3)[C@H]21 [LOVASTATIN]     HEK-293T            %                     1
25  C=CC(=O)Nc1cc2c(Nc3ccc(F)c(Cl)c3)ncnc2cc1OCCCN1CCOCC1.Cl.Cl [CANERTINIB DIHYDROCHLORIDE]     HEK-293T            %                     6
26  CN1CCN(c2ccc(OC(F)(F)F)c(Nc3ncc4c(n3)-c3c(c(C(N)=O)nn3CCO)CC4)c2)CC1 [ONVANSERTIB]     HEK-293T            %                     2
27  CN(C)CC#Cc1ccc(OCCCc2sc(N3CCc4cccc(C(=O)Nc5nc6ccccc6s5)c4C3)nc2C(=O)O)c(F)c1 [A-1155463]     HEK-293T            %                    14
28  COc1cc(-n2cnc3cc(-c4ccc(Cl)cc4)sc3c2=O)ccc1OCCN1CCCC1     HEK-293T            %                     0
29  O=C1NCN(c2ccccc2)C12CCN(CCCOc1ccc(F)cc1)CC2 [SPIRAMIDE]     HEK-293T            %                     5
30  Cc1[nH]c(/C=C2\C(=O)Nc3ccc(S(=O)(=O)N(C)c4cccc(Cl)c4)cc32)c(C)c1C(=O)N1CCN(C)CC1     HEK-293T            %                     5
31  C[C@@H](NCCCc1cccc(C(F)(F)F)c1)c1cccc2ccccc12.Cl [CINACALCET HYDROCHLORIDE]     HEK-293T            %                     3
32  CN1CCCC(n2nc(Cc3ccc(Cl)cc3)c3ccccc3c2=O)CC1.Cl (centres undefined) [AZELASTINE HYDROCHLORIDE]     HEK-293T            %                     0
33  CCN(CC)CCCCNc1ncc2cc(-c3cc(OC)cc(OC)c3)c(NC(=O)NC(C)(C)C)nc2n1 [PD-173074]     HEK-293T            %                    25
34  Cc1sc2c(c1C)C(c1ccc(Cl)cc1)=N[C@@H](CC(=O)OC(C)(C)C)c1nnc(C)n1-2     HEK-293T            %                     1
